Assay: Cycloheximide Counterscreen for Small Molecule Inhibitors of Shiga Toxin; further: read at 38.3 µM for the half of the compounds with a filed dose; 0% is about no effect
Settings: cell reporter, cycloheximide protein synthesis inhibition counterscreen; hits give high values
Out of some 300,000 compounds screened, about 37,000 (12%) were called active. This is one part of a sample in which actives are shown more often than they occur.
property.label: max response (%)
# number only, unit % dropped from output

Please indicate max response recorded for `FC(F)(F)c1cnc(Oc2ccccc2-c2nnc(-c3ccc(Cl)cc3)o2)c(Cl)c1`
13.8

Please indicate max response recorded for Cc1cc(C(=O)NC2CC(C)(C)Cc3c2cnn3-c2ccccc2)n[nH]1 (stereo not drawn)
3.28

Please indicate max response recorded for `CCCCn1c(N)c(N(CCC(C)C)C(=O)c2ccc([N+](=O)[O-])o2)c(=O)[nH]c1=O`
-1.97

Please indicate max response recorded for `Cc1cc(N2CCCC2)n2nc(C)c(-c3ccccc3)c2n1`
6.19

Please indicate max response recorded for `COC(=O)Cc1ccc(Oc2ncc(C(F)(F)F)cc2Cl)cc1`
10.3

Please indicate max response recorded for `O=C(O)CCC(=O)O`
7.04

Please indicate max response recorded for `Cc1ccc(OCCCn2c(=O)oc3ccccc32)cc1`
33.3

Please indicate max response recorded for `c1ccc(CN2CCC(N=C3NN=C(c4ccc5c(c4)OCCO5)CS3)CC2)cc1`
32.2

Please indicate max response recorded for `COc1ccc(CNC(=O)c2nnn(CC(=O)Nc3cc(C)cc(C)c3)c2N)cc1`
-2.25

Please indicate max response recorded for `CN(C)c1nc(-c2cccnc2)nc(-c2ccc(Cl)cc2)c1C#N`
-4.98

Please indicate max response recorded for O=C(NCC1CC1)C1(C(F)(F)F)C/C(=C\CCO)CCCO1 (stereo not drawn)
-3.88

Please indicate max response recorded for `CCOCCCNC(=S)Nc1ccc2nc(N3CCN(CC)CC3)cc(C)c2c1`
-1.07

Please indicate max response recorded for `Cc1cccc(NC(=O)CCn2c(=O)oc3ccccc32)c1`
-4.29

Please indicate max response recorded for COc1ccc(C(=O)NC(=S)N2CCNC(=O)C2CC(=O)OC(C)C)cc1 (stereo not drawn)
0.131

Please indicate max response recorded for `COc1cc2c(C(=O)N3CCN(C)CC3)c(CSc3ccccc3)n(C)c2cc1Br`
-3.14

Please indicate max response recorded for Cc1cc2c(cc1C)NC(c1ccccn1)C1=C(CC(C)(C)CC1=O)N2 (stereo not drawn)
28

Please indicate max response recorded for `Cc1cc(C)cc(NS(=O)(=O)c2ccc(Oc3ncc(C(F)(F)F)cc3Cl)cc2)c1`
-3.33

Please indicate max response recorded for `CN(C)c1ccc(-c2nnc(-c3cccnc3)o2)cc1`
56.2

Please indicate max response recorded for `Cc1cc(=O)cc(C)n1-c1ccc(Cl)c(Cl)c1`
-2.09

Please indicate max response recorded for CCC(C)NCCOCCOc1ccc(Br)cc1C (stereo not drawn)
-2.66

Please indicate max response recorded for `Cc1ccc(C)c(N2CCN(C(=O)Cn3ncn4cccc4c3=O)CC2)c1`
-1.35

Please indicate max response recorded for CCC(C(=O)OCC(=O)Nc1c(Cl)cc(Cl)cc1Cl)c1ccccc1 (stereo not drawn)
1.18

Please indicate max response recorded for `CSc1ccccc1-c1nnc(-c2ccc(Cl)cc2)o1`
29

====

Assay: Cycloheximide Counterscreen for Small Molecule Inhibitors of Shiga Toxin; further: read at 38.3 µM for the half of the compounds with a filed dose; 0% is about no effect
Conditions: cell reporter, cycloheximide protein synthesis inhibition counterscreen
About 37,000 (12%) of roughly 300,000 compounds were called active. Cut-off read from the data, not from the text of the source: active = max response mostly above about 13% (no sharp cut-off); inactive = mostly below about 14%. Many of the other results were omitted from the sample, so actives are more common in it than they were.
I would appreciate it if you answered using one of these outcomes: YES (active), NO (inactive)

# lookup: test call for `CCOC(=O)c1oc2ccccc2c1NC(=O)c1cccs1`
NO

# lookup: test call for CSCCC(NS(=O)(=O)c1ccc(C)cc1)C(=O)N1CCCC1 (stereo unspecified)
NO

# lookup: test call for `O=C(CSc1nc(-c2ccccc2)cs1)Nc1cccc([N+](=O)[O-])c1`
YES

# lookup: test call for `CCNC(=O)CSc1nc(-c2ccccc2)cs1`
YES

# lookup: test call for `COc1ccc(-c2nc(N)ncc2-c2ccc(Cl)cc2)c(O)c1`
NO

# lookup: test call for `Cc1ccc(-c2noc(CN3CCN(Cc4ccccc4)CC3)n2)cc1`
NO

# lookup: test call for `O=C(CSC1=NCCS1)Nc1nc(-c2ccccc2)cs1`
YES

# lookup: test call for `O=C(CSCC(=O)Nc1cccc([N+](=O)[O-])c1)Nc1ccccc1`
NO

# lookup: test call for `CCOc1ccc(NC(=O)CCC(=O)NNC(=O)NC2CCCCC2)cc1`
NO

# lookup: test call for Cc1cccc(N2C(=O)SC(N(CC(=O)O)c3cccc(C)c3)C2=O)c1 (stereo unspecified)
YES

# lookup: test call for `O=C(COC(=O)CCC(=O)c1cccs1)NCc1ccco1`
NO

# lookup: test call for `Cc1cc(=O)oc2c(C)c(OCC(=O)NCCc3ccc(S(N)(=O)=O)cc3)ccc12`
NO

# lookup: test call for `CC1CCN(Cc2nc(-c3ccc(Cl)cc3)no2)CC1`
YES

# lookup: test call for CCCCCCCC(=O)NC(Nc1ccccc1OC)C(Cl)(Cl)Cl (stereo unspecified)
NO

# lookup: test call for `O=C(CSc1nc2ccccc2c(=O)[nH]1)Nc1nc(-c2ccc(Br)cc2)cs1`
NO

# lookup: test call for `O=C(CCN1C(=O)[C@@H]2Cc3ccccc3CN2C1=O)NCCc1ccccc1`
NO

# lookup: test call for CC(C)C(O)C1CCN(Cc2nc(Cc3ccccc3Cl)no2)CC1 (stereo unspecified)
NO

# lookup: test call for `CCOC(=O)CSc1nnc(CNc2nc(-c3ccccc3)cs2)n1C`
NO

# lookup: test call for `Cc1ccc2nc(/C(C#N)=C\c3ccc(OC(=O)c4cccs4)cc3)[nH]c2c1`
YES

# lookup: test call for `CN(C(=O)c1ccno1)c1nnc(-c2cccnc2)s1`
NO

# lookup: test call for `CC(C)NC(=O)/C(C#N)=C\c1ccc(N(C)C)c(Br)c1`
YES

# lookup: test call for `O=C(CSc1n[nH]c(=O)n1-c1ccccc1)Nc1ccccc1C(F)(F)F`
NO

# lookup: test call for `Cc1cccc(N(CC(=O)N2CCOCC2)S(C)(=O)=O)c1`
NO

# lookup: test call for `CC(C)(C)C(=O)/C(C#N)=C/c1ccc(O)cc1`
NO

# lookup: test call for `Cc1cccc(N(C)C(=O)CN2C(=O)COc3ccc(S(=O)(=O)N4CCCCCC4)cc32)c1`
NO

# lookup: test call for `CC/C(=N\NC(=S)NC(C)C)c1ccc(OC(F)F)cc1`
NO

# lookup: test call for `C/C(=N\OCC(=O)Nc1ccc(Br)cc1)c1cccs1`
NO

# lookup: test call for `CCc1ccc(NC(=O)CCNS(=O)(=O)c2cccs2)cc1`
YES

# lookup: test call for `COc1cccc(-c2cccc(NC(=O)C3CCN(C4CCC4)CC3)c2)c1`
NO

# lookup: test call for `CCO[C@@H]1OC(C(=O)NCc2nc3ccccc3[nH]2)=C[C@H](C2CCCCC2)[C@H]1CCCO`
NO

# lookup: test call for CN(C)c1ccc(CNC2C3CC4CC(C3)CC2C4)cc1 (stereo unspecified)
NO

# lookup: test call for `O=C(COC(=O)c1cccs1)Nc1ccccc1Cl`
NO

# lookup: test call for `CCc1cccc(NC(=O)CCNS(=O)(=O)c2cccc3nonc23)c1`
NO

# lookup: test call for `Cc1ccc(C(=O)N(CC(=O)NC2CCCC2)c2ccc(F)cc2)s1`
NO

# lookup: test call for CCOC(=O)Cc1csc(SCC(=O)NC(C)C23CC4CC(CC(C4)C2)C3)n1 (stereo unspecified)
NO

# lookup: test call for `CCOC(=O)c1ccc(COC(=O)c2cc(=O)[nH]c3ccccc23)o1`
NO

# lookup: test call for Cc1ccc(N2C(=O)SC(N(CC(=O)O)c3ccc(C)cc3)C2=O)cc1 (stereo unspecified)
NO

# lookup: test call for `O=C(COC(=O)c1ccc(NS(=O)(=O)c2cccs2)cc1O)Nc1ccc(F)cc1`
NO

# lookup: test call for `OCc1ccc(OCCCOc2cccc3cccnc23)cc1`
NO

# lookup: test call for `COc1ccc(CC(=O)N/N=C/c2cc([N+](=O)[O-])cc(Br)c2O)cc1`
NO

# lookup: test call for `CCc1ccc(NC(=O)C(=O)N/N=C(\C)CC(=O)NCCOC)cc1`
NO

# lookup: test call for `O=C(COC(=O)c1ccc(Cl)nc1)NCc1cccs1`
NO

# lookup: test call for `O=C(COC(=O)c1cccs1)NCc1cccs1`
YES

# lookup: test call for `CCc1ccc(NC(=O)C(=O)NNC(=O)c2cccs2)cc1`
YES

# lookup: test call for `Cc1csc(NC(=O)CSc2ccc(-c3ccc(F)cc3)nn2)n1`
NO

# lookup: test call for `CCOC(=O)Nc1ccc2c(c1)N(C(=O)CCCl)c1ccccc1[S@]2=O`
NO
